Target: T1, ST2 on the effector cells (KU812, KU812/NF-κB-1#, HUVEC, HMC-1) (human, UniProt Q01638 19-556)
T1 sequence (looked up): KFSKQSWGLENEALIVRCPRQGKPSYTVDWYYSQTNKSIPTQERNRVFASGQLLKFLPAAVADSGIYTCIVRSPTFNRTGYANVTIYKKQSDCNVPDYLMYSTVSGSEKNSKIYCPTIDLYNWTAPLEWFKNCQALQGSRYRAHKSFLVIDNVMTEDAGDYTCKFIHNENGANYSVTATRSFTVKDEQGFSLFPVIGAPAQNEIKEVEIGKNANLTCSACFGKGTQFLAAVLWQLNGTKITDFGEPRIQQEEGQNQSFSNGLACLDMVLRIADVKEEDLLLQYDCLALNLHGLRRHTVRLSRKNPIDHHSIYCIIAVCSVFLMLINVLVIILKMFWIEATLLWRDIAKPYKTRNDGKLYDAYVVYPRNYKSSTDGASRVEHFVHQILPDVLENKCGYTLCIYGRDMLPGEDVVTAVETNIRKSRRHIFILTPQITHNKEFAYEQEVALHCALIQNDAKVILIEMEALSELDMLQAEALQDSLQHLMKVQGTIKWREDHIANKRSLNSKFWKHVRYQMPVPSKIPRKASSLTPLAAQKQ
Test: cell-based or functional assay
PROPERTY_MEASURED: IC50, inhibition of KU812-IL5 production promoted by oxidized IL33 (µg/mL)
Please reply with the bare figure in µg/mL and do not write the unit itself.

>>> readout_value("5888-379-H1L0 (antibody, human IgG4 S228P, kappa, V domains shown, Humanized antibody) VH: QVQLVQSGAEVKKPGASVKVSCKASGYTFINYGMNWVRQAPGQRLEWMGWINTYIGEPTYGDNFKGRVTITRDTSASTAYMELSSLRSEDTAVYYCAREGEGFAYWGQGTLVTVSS VL: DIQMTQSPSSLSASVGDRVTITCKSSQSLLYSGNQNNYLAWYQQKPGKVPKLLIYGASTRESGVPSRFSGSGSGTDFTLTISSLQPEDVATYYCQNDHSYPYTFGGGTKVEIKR")
0.0161

Below: the item to evaluate.
Requested read-out: IC50, inhibition of KU812-IL5 production promoted by oxidized IL33. Entry: 5887-41-H1L0 (antibody, human IgG4 S228P, kappa, V domains shown, Humanized antibody) VH: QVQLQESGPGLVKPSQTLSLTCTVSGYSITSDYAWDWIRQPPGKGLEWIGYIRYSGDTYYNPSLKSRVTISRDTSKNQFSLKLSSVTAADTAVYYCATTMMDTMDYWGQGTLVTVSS VL: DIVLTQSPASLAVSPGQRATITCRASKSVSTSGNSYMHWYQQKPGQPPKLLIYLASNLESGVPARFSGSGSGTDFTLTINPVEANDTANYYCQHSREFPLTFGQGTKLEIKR
0.0337
